system: Ser. marcescens A20019; assay: M.I.C. by tube dilution; type: cell-based; details: Serratia marcescens
measure-name: MIC

Use these answered entries as a reference point.
Cc1nc(C(=O)SCC2=C(C(=O)O)N3C(=O)C(NC(=O)[C@H](N)c4ccccc4)[C@H]3SC2)sc1C (stereo partly shown) [Compound 587]	> 125 µg/mL
N[C@@H](C(=O)NC1C(=O)N2C(C(=O)O)=C(CSC(=O)c3cscn3)CS[C@H]12)c1ccccc1 (stereo partly shown) [Compound 591]	125 µg/mL
N[C@@H](C(=O)NC1C(=O)N2C(C(=O)O)=C(CSC(=O)c3cncs3)CS[C@H]12)c1ccccc1 (stereo partly shown) [Compound 602]	> 125 µg/mL
Cc1cnc(C(=O)SCC2=C(C(=O)O)N3C(=O)C(NC(=O)[C@H](N)c4ccccc4)[C@H]3SC2)s1 (stereo partly shown) [Compound 586]	> 125 µg/mL
Cc1nc(C(=O)SCC2=C(C(=O)O)N3C(=O)C(NC(=O)[C@H](N)c4ccccc4)[C@H]3SC2)cs1 (stereo partly shown) [Compound 607]	> 125 µg/mL

Req: State the recorded MIC for this entry: CC1=C(C(=O)O)N2C(=O)[C@@H](NC(=O)[C@H](N)c3ccccc3)[C@H]2SC1 [cephalexin, reference compound]
Resp: > 125 µg/mL

Req: State the recorded MIC for this entry: N[C@@H](C(=O)NC1C(=O)N2C(C(=O)O)=C(CSC(=O)c3nccs3)CS[C@H]12)c1ccccc1 (stereo partly shown) [Compound 567]
Resp: 125 µg/mL
